System: alpha-smooth muscle actin (α-SMA)
Assay: Inhibition of TGF-β induced expression of alpha-smooth muscle actin (α-SMA) in CFSC cells, western blot
Format: cell-based
Settings: compound at 10 μM, TGF-β (10 ng/mL), 24 hours, decrease in band intensity vs TGF-β only
Method: The ability of a compound to inhibit the TGF-β induced expression of alpha-smooth muscle actin (α-SMA) was evaluated in CCL4-treated fat storing (CFSC) cells. α-SMA is considered as a reliable marker of hepatic stellate cell activation and a key biomarker for liver fibrosis. […] A NP-40 lysate solution (50 mM Tris (pH 7.4), 150 mM NaCl, 1% NP-40) with EDTA free cocktail added was used to lyse the cells on ice for 30 min. […] The western blotting bands are quantitated using an ImageJ software. […]
property_label: inhibition at 10 µM

Record excerpt, results attached:
CC1=C(CC(=O)O)c2cc(F)ccc2/C1=C\c1ccc(N(Cc2ccccc2)c2ccc(F)cc2)cc1 :: 70 to 80%
CC1=C(CC(=O)O)c2cc(F)ccc2/C1=C\c1ccc(Oc2ccc(C(C)C)cc2)cc1Cl :: 80 to 90%
CC1=C(CC(=O)O)c2cc(F)ccc2/C1=C\c1ccc(N(c2ccccc2)c2ccc(C=O)cc2)cc1 :: > 90%

Read the next record carefully.
# query: inhibition at 10 µM of entry CC1=C(CC(=O)O)c2cc(F)ccc2/C1=C\c1ccc(N2CCOCC2)cc1
< 50%

---

The entries below are paired with their reported inhibition at 10 µM.
tested on: alpha-smooth muscle actin (α-SMA); test: Inhibition of TGF-β induced expression of alpha-smooth muscle actin (α-SMA) in CFSC cells, western blot; type: cell-based; details: compound at 10 μM, TGF-β (10 ng/mL), 24 hours, decrease in band intensity vs TGF-β only

Record excerpt, results attached:
CC1=C(CC(=O)O)c2cc(F)ccc2/C1=C\c1ccc(Oc2ccc(F)nc2)cc1 [Compound A20] :: < 50%
CC1=C(CC(=O)O)c2cc(F)ccc2/C1=C\c1ccc(N(CCO)c2ccc(F)cc2)cc1 [Compound A34] :: > 90%
CC1=C(CC(=O)O)c2cc(F)ccc2/C1=C\c1ccc(Oc2ccc(Br)cc2)cc1 [Compound A6] :: > 90%

# query: inhibition at 10 µM of entry CC1=C(CC(=O)O)c2c(F)cc(F)cc2/C1=C\c1ccc(Oc2ccc(F)cc2)cc1 [Compound D16]
< 50%

# query: inhibition at 10 µM of entry CC1=C(CC(=O)O)c2cc(F)ccc2/C1=C\c1ccc(Oc2ccc(F)cc2)cc1C(F)(F)F [Compound D12]
< 50%

# query: inhibition at 10 µM of entry CC1=C(CC(=O)O)c2cc(F)ccc2/C1=C\c1ccc(F)c(Oc2ccccc2)c1 [Compound D23]
> 90%

# query: inhibition at 10 µM of entry COc1ccc(Oc2cccc(/C=C3/C(C)=C(CC(=O)O)c4cc(F)ccc43)c2)cc1 [Compound D22]
> 90%

# query: inhibition at 10 µM of entry CC1=C(CC(=O)O)c2cc(F)ccc2/C1=C\c1ccc(C(C(F)(F)F)C(F)(F)F)cc1 [Compound B42]
80 to 90%
